Read-out: Ezrin (EZR), EZR (gene 7430)
Experiment: LTEA_HepaRG_EZR: Life Technologies and Expression Analysis (LTEA) Assay for Ezrin (EZR) using HepaRG (AID 2283491)
Settings: mRNA level, 48 h; actives raise or lower the signal
Active and inactive are the calls of the source. Rule for the calls: active = hit-call score of the fitted dose curve at least 0.9, where 1 is the maximum; inactive = score below 0.9.
ASSAY ENDPOINT: AC50

Use these answered entries as a reference point.
Param item = `COc1cc(-c2nc(NC(=O)c3cc4cc(C)cc(C)c4n3CC(=O)O)sc2CCC2CCCCC2)c(OC)cc1Cl` ; retrieve measured AC50.
19.8 µM (active)

Param item = `COc1cc(C=O)ccc1O` ; retrieve measured AC50.
inactive

Param item = `COc1ccc(C)cc1N` ; retrieve measured AC50.
inactive

Param item = `CCCCCCCCCCCCCCCC` ; retrieve measured AC50.
inactive

Param item = `CCCCCCOCCO` ; retrieve measured AC50.
inactive

Param item = `CCCCCCCCCCC` ; retrieve measured AC50.
inactive

Param item = `CCCCCCCC=O` ; retrieve measured AC50.
inactive

Param item = `C1CCC(SSC2CCCCC2)CC1` ; retrieve measured AC50.
inactive

Param item = `C[Si]1(C)O[Si](C)(C)O[Si](C)(C)O[Si](C)(C)O1` ; retrieve measured AC50.
inactive

Param item = `Nc1ccccc1N` ; retrieve measured AC50.
inactive

Further cases:
Param item = `Oc1ccc2c(c1)OC[C@@H](N1CCC(O)(c3ccc(F)cc3)CC1)[C@H]2O` ; retrieve measured AC50.
inactive

Param item = `Cc1ccc(C(C)C)c(O)c1` ; retrieve measured AC50.
inactive

Param item = `Cc1ccccc1Cl` ; retrieve measured AC50.
inactive

Param item = `CCCCCCCCCCO` ; retrieve measured AC50.
inactive

Param item = `Cc1nc(C)nc(N2C[C@@H](C)N(c3ccnc([C@@H](C)O)n3)[C@@H](C)C2)n1` ; retrieve measured AC50.
inactive

Hey, just so you know, these numbers are from PubChem BioAssay (EPA / NIEHS).
